Each recorded value in this set is attributed to patent US20180002381A1.

# study_target: T1, Coiled coil domain of UVRAG (228-276) (Mus musculus, UniProt Q8K245 228-275)
# T1 construct: They have S at position 238 where the full-length entries have C; also called UVRAG coiled coil domain; UVRAG coiled coil
# T1 chain: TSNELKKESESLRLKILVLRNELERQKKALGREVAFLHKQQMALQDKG
# experiment_summary: isothermal titration calorimetry, Beclin 1 construct against UVRAG coiled coil domain
No end group written: not given here.

[
  {
    "binder": "RKVVAENLEKVQAEAERLDQEEAQYQREYSEFKRQQLELDDELKSVENQ (other, 7 heptad repeats of the Beclin1 coiled coil domain) [Beclin 1 coiled coil 3 (CC3)]",
    "Kd / µM": 671
  },
  {
    "binder": "EERLIQELEDVEKNRKVVAENLEKVQAEAERLDQEEAQYQREYSEFKRQ (other, 7 heptad repeats of the Beclin1 coiled coil domain) [Beclin 1 coiled coil 2 (CC2)]",
    "Kd / µM": 139
  },
  {
    "binder": "AERLDQEEAQYQREYSEFKRQQLELDDELKSVENQMRYAQMQADKLKKTN (other, 7 heptad repeats of the Beclin1 coiled coil domain) [Beclin 1 coiled coil 4 (CC4)]",
    "Kd / µM": 157
  },
  {
    "binder": "DSEQAQRELKELALEEERLIQELEDVEKNRKVVAENLEKVQAEAERLDQE (other, not fully specified) [Beclin 1 coiled coil 1 (CC1), residues 174-223]",
    "Kd / µM": 8.9
  }
]
